# System: A498 renal
# Test: NCI tumour cell line growth inhibition, 48 h
Catalogue of compounds with associated log10(TGI)
Assay metric: log10(TGI) (log10 of the value in µM)

>>> experimental_value("C[C@H](Nc1ncnc2nc[nH]c12)c1cc2ccc(F)cc2nc1-c1ccccn1")
1.03
>>> experimental_value("Cl.Fc1c[c-]c(-c2ccccn2)c(F)c1.[Pt].c1ccc(P(c2ccccc2)C([PH+](c2ccccc2)c2ccccc2)[PH+](c2ccccc2)c2ccccc2)cc1")
0.87
>>> experimental_value("Cc1ccc(C(SCC(N)C(=O)O)(c2ccc(C)cc2)c2ccc(C)cc2)cc1 (stereo not drawn)")
1.16
>>> experimental_value("O=C1C(=O)c2c(nc3ccc(Br)cn23)-c2ccccc21")
0.46
>>> experimental_value("CC(=O)Nc1ccc(-c2nc3ccccc3s2)cc1I")
1.56
>>> experimental_value("C[C@]12CC[C@H](O)C[C@H]1CC[C@@H]1[C@@H]2CC[C@]2(C)[C@@H](C3=CC(=O)OC3)[C@@H](O)C[C@]12O")
0.96
>>> experimental_value("C=CCSC1=N/C(=C\\c2cccs2)C(=O)N1CC=C")
1.98
>>> experimental_value("c1cc2[nH]ncc2cc1-c1nc2ccc3[nH]ncc3c2c2c1CCCC2")
0.26
>>> experimental_value("Nc1nc2c(s1)CCc1c-2c(Br)n(Cc2ccccc2)c1Br")
1.53
>>> experimental_value("COc1cc2nc(SCC(=O)Nc3cc(OC)c(OC)c(OC)c3)n(Cc3ccccc3)c(=O)c2cc1OC")
1.51

###

Catalogue of molecules with associated TGI
# System: MDA-MB-435
# Test: NCI tumour cell line growth inhibition, 48 h
Assay metric: TGI

>>> experimental_value("CN(C)P(=O)(Oc1ccc(CC(NC(=O)OCc2ccccc2)C(=O)OCc2ccccc2)cc1)N(C)C (stereo unspecified)")
"25.7 µM"
>>> experimental_value("CN(C)c1ccc(N=C2C=CC(=[N+](C)C)C=C2)cc1")
"29.2 µM"
>>> experimental_value("CC(=O)CSc1c(-c2ccccc2)c(=O)n(-c2ccccc2)c(=S)n1-c1ccccc1")
"> 100 µM"
>>> experimental_value("CC1=C/C(=N\\O)C(C(O)(C(F)(F)F)C(F)(F)F)C(C)(C)C1 (stereo unspecified)")
"> 10 µM"
>>> experimental_value("Cc1ccc(-c2cc(C(F)(F)F)nn2-c2ccc(S(N)(=O)=O)cc2)cc1")
"> 56 µM"
>>> experimental_value("CC(SC(=S)N1CCOCC1)C(=O)Nc1nnc(-c2ccccc2)o1 (stereo unspecified)")
"> 100 µM"
>>> experimental_value("CC1COc2c(N3CCN(C)CC3)c(F)cc3c(=O)c(C(=O)O)cn1c23 (stereo unspecified)")
"> 100 µM"
>>> experimental_value("O=c1oc2ccccc2c(O)c1/C=N/C(=S)NCCc1ccccc1")
"> 75.3 µM"
>>> experimental_value("Nc1nc2c(s1)CCc1c-2c(Br)n(Cc2ccccc2)c1Br")
"30.7 µM"
>>> experimental_value("CN(Cc1cc(Br)cc(Br)c1O)Cc1cc(Br)cc(Br)c1O")
"22.6 µM"
>>> experimental_value("CCCCC(Sc1cc(Cl)c(C)cc1S(=O)(=O)Nc1n[nH]c(N)n1)C(=O)OC (stereo unspecified)")
"> 10 µM"
>>> experimental_value("Cc1ccc(S(=O)(=O)N2CCSCCN(S(=O)(=O)c3ccc(C)cc3)CCN(S(=O)(=O)c3ccc(C)cc3)CC2)cc1")
"> 100 µM"
>>> experimental_value("O=c1ccn(C2OC(CO)C(O)C2[Se]c2ccccc2)c(=O)[nH]1 (stereo unspecified)")
"> 100 µM"
>>> experimental_value("c1cc2[nH]ncc2cc1-c1nc2ccc3[nH]ncc3c2c2c1CCCC2")
"3.74 µM"
>>> experimental_value("Cn1cc(C2=C(c3cn(C)c4c([N+](=O)[O-])cccc34)C(=O)NC2=O)c2ccccc21")
"> 25 µM"
>>> experimental_value("O=[N+]([O-])c1ccccc1N/N=C\\c1c[nH]c2ccccc12")
"> 100 µM"
>>> experimental_value("Nc1cc(N2CCCC2)nc(=O)n1-c1ccccc1")
"> 100 µM"
>>> experimental_value("COc1cc2cccc(N)c2cc1OC")
"> 100 µM"
>>> experimental_value("Cc1ccc(N=Nc2ccc(O)c(CN(C)C)c2)cc1")
"32.3 µM"
>>> experimental_value("CCN(CC)CCNC(=O)c1cc2cc(NC(=O)c3cc4cc(NC(=O)c5cc6cc(N)ccc6[nH]5)ccc4[nH]3)ccc2[nH]1")
"> 100 µM"
>>> experimental_value("COc1ccc(OCc2ccc3nc(-c4ccccc4)c(Cl)nc3c2)cc1")
"> 100 µM"

###

# System: HOP-62 NSCLC
# Test: NCI tumour cell line growth inhibition, 48 h
Catalogue of compounds with associated GI50
Assay metric: GI50

>>> experimental_value("Clc1cccc(Cl)c1C1CSc2ccccc2N=C1c1ccccc1 (stereo unspecified)")
"20.7 µM"
>>> experimental_value("NC(N)=N/N=C/c1c(-c2cc(Cl)sc2Cl)nc2sccn12")
"2.07 µM"
>>> experimental_value("CC1=CC(=C(c2ccc(N)cc2)c2ccc(N)cc2)C=CC1=N")
"0.486 µM"
>>> experimental_value("COc1ccc2c(CN3CCC(C(=O)O)CC3)cc3cc4c(cc3c2c1)OCO4")
"2.71 µM"
>>> experimental_value("CCOC(=O)c1c(C)n2c(=O)cc(C)c3c(O)c(O)cc1c32")
"38.4 µM"
>>> experimental_value("O=C(c1ccccc1)c1ccc(Oc2ccc([N+](=O)[O-])cc2[N+](=O)[O-])cc1")
"7.81 µM"

###

# Tested on: TK-10 renal
# Test: NCI tumour cell line growth inhibition, 48 h
Assay metric: TGI

>>> experimental_value("O=[N+]([O-])c1ccc(Sc2ncnc3nc[nH]c23)c2nonc12")
"23.7 µM"
>>> experimental_value("COc1cccc2c1OC(c1ccc(C#N)cc1)C([N+](=O)[O-])=C2 (stereo not given)")
"7.77 µM"
>>> experimental_value("CC(C)=NNC=N/C(C#N)=C(\\N)C#N")
"> 100 µM"
>>> experimental_value("Clc1cc(Cl)cc(C2ON=C(c3ccccc3)N2C23CC4CC(CC(C4)C2)C3)c1 (stereo not given)")
"> 10 µM"
>>> experimental_value("COc1cc(OC)c(/C=C\\c2ccnc3ccccc23)c(OC)c1")
"17.8 µM"
>>> experimental_value("COc1c(C(=O)c2ccc([N+](=O)[O-])cc2)cc(C(C)(C)C)cc1C(C)(C)C")
"> 100 µM"
>>> experimental_value("O=C(Nc1ccccc1)N(C1=NCC(CI)S1)c1ccc(F)cc1F (stereo not given)")
"> 100 µM"
>>> experimental_value("Cc1cc2c(cc1C)[n+](=O)c(C(=O)C/C(=N/OCCCc1ccccc1)C(=O)Nc1cc(Cl)ccc1Cl)c(C)n2[O-]")
"> 100 µM"
>>> experimental_value("CCOC(=O)c1c(C)n2c(=O)cc(C)c3c(O)c(O)cc1c32")
"> 100 µM"
>>> experimental_value("CC(=O)NC(c1nc2cc(C)c(C)cc2[nH]1)c1nc2cc(C)c(C)cc2[nH]1")
"89.1 µM"

###

# Tested on: BT-549 breast
# Test: NCI tumour cell line growth inhibition, 48 h
Assay metric: TGI

>>> experimental_value("C=C[C@@H]1C[C@]2(C(=O)OC)Cc3nc4ccccc4nc3CC(C(=O)OC)=C2O1")
"> 100 µM"
>>> experimental_value("O=C1NC(=O)C2(CCCCCC2)N1")
"> 100 µM"
>>> experimental_value("COc1ccc2c(CN3CCC(C(=O)O)CC3)cc3cc4c(cc3c2c1)OCO4")
"17.6 µM"

###

# System: HS 578T breast
# Test: NCI tumour cell line growth inhibition, 48 h; in the data active means GI50 below about 0.43 µM; inactive means the rest
Classes used: YES = active, NO = inactive

>>> discrete_label("Cc1ccc(C(SCC(N)C(=O)O)(c2ccc(C)cc2)c2ccc(C)cc2)cc1 (stereo not drawn)")
"NO"
>>> discrete_label("Clc1ccc2c(c1)N(c1ncnc3ccc(-c4cnc5[nH]ccc5c4)cc13)CC2")
"NO"
>>> discrete_label("CN(C)c1ccc(N=C2C=CC(=[N+](C)C)C=C2)cc1")
"NO"
>>> discrete_label("COc1ccc(C(SCC(N)C(=O)O)(c2ccccc2)c2ccccc2)cc1 (stereo not drawn)")
"YES"
>>> discrete_label("Cc1ccccc1-n1ncc(C(=O)c2ccccc2)c1N")
"NO"
>>> discrete_label("Nc1nc(OCc2cc(Br)cs2)c2[nH]cnc2n1")
"NO"
>>> discrete_label("O=[N+]([O-])c1ccccc1N/N=C\\c1c[nH]c2ccccc12")
"NO"
>>> discrete_label("[O-][n+]1ccccc1S")
"NO"

###

# Tested on: RPMI-8226 leukemia
# Test: NCI tumour cell line growth inhibition, 48 h; in the data active = GI50 below about 0.43 µM; inactive = the rest
Classes used: T for active, F for inactive

>>> discrete_label("Clc1ccc2c(c1)N(CCCN1CCCC1)c1ccccc1S2")
"F"
>>> discrete_label("C[C@H](Nc1ncnc2nc[nH]c12)c1cc2ccc(F)cc2nc1-c1ccccn1")
"F"
>>> discrete_label("Cn1cc(C2=C(c3cn(C)c4c([N+](=O)[O-])cccc34)C(=O)NC2=O)c2ccccc21")
"F"
>>> discrete_label("O=C1NC(=O)C(=C/C=C/c2ccccc2)C(=O)N1")
"F"
>>> discrete_label("CN(C)c1ccc(N=C2C=CC(=[N+](C)C)C=C2)cc1")
"F"
>>> discrete_label("Clc1cccc(Cl)c1C1CSc2ccccc2N=C1c1ccccc1 (centres undefined)")
"F"
>>> discrete_label("COc1ccc2c(c1)[nH]c(=O)c1c3cc(OC)ccc3cn21")
"T"
>>> discrete_label("CC1(C)CCC2=C(O1)c1ccccc1C(=O)C2=O")
"F"
>>> discrete_label("Oc1ccc(O)c(-c2cn3ccsc3n2)c1")
"F"
